The following binders are shown together with reported cAMP accumulation (HTRF): Emax values.
Measured on: T1, PTHR1 on CHO-K1/Ga15/PTHR1 cells (UniProt Q03431 27-593, limits assumed)
T1 sequence (looked up): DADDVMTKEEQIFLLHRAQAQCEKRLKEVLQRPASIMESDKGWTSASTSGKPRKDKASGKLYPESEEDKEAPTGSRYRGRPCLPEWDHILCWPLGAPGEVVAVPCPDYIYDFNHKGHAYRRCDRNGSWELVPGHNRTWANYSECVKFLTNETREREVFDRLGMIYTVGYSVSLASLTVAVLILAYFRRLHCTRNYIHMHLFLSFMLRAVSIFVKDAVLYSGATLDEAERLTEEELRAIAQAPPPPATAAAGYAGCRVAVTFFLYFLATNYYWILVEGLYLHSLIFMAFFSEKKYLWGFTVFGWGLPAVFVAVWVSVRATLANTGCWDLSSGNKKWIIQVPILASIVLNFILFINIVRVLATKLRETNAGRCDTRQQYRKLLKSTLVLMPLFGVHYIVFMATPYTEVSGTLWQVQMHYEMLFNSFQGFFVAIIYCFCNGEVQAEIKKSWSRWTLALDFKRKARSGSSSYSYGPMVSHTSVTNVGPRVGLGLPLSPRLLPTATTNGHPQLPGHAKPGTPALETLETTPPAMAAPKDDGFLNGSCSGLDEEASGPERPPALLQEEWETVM
Assay details: cell-based or functional assay
The answer is to be given in %; state only the numeric part.

GVAMLQIMHDLAKIKQELELKDSMKKILEDVL [R2-50] = 99.8
GVAELQLMHDLAKIRAEYELREMLLRLLEEIF [R2-1] = 102
AVAEIQLMHQRAKWKLELELKEKIRKLLEDLL [R2-29] = 97.5
LILVKKIIDLRAYLRAEYELREMLLRLLEEIF [R2-21] = 47
AVAEIQLMHQRAKWEIQEIGIKITLDLLQTLK [R2-41] = 98.2

Now for a further binder.
Prompt: Please give the documented cAMP accumulation (HTRF): Emax of GVAMIQIMHDIAKIRAEYELREMLLRLLEEIF [R2-2]
Response: 101
